experiment: qHTS for Inhibitors of the Aldehyde Dehydrogenase Family (ALDH1A2, ALDH1A3, ALDH2, ALDH3A1) (AID 2061307); conditions: ALDH inhibition qHTS; series mostly up to 50.3 µM; also: nearly all actives have a fitted effect of over 50% in size
Results filed as inconclusive are left out. Calls of active or inactive are those of the source. Calls follow the shape of the dose curve; as a rule, active = well fitted inhibition curve with a large enough effect; inconclusive = small, poorly fitted or top-dose-only effect; inactive = no such curve, though single readings can be large or run the other way.
// allowed return values: active, inactive

Query: Please indicate how the test categorized O=C(NCc1ccc(F)c(F)c1)c1ccc2nnc(-c3cccc(C(F)(F)F)c3)n2c1 .
Result: active

Query: Please indicate how the test categorized O=S1(=O)N=C(Oc2ccccc2F)c2ccccc21 .
Result: inactive

Query: Please indicate how the test categorized NC(=O)C[C@H](N)C(=O)Nc1ccc(Cl)cc1C(=O)c1ccc[nH]1 .
Result: inactive

Query: Please indicate how the test categorized COc1cc(/C=C/c2cc(O)cc(O[C@@H]3O[C@H](CO)[C@@H](O)[C@H](O)[C@H]3O)c2)ccc1O .
Result: inactive

Query: Please indicate how the test categorized CCc1ccc(-n2c(SCc3cccc(F)c3)nc3[nH]ncc3c2=O)cc1 .
Result: inactive

----------
assay: BET inhibitor-based combinations targeting novel dependencies in MECOM-rearranged (r) AML: OCI-AML3 cell line (AID 2202232); details: CellTiter-Glo luminescence, 48 h; OCI-AML3 viability; series mostly up to 46 µM; also: nearly all actives have a fitted effect of over 35% in size
Records with an inconclusive call do not appear. Calls of active or inactive are those of the source. The call rests on the fitted dose curve; in most records, active means well fitted inhibition curve with a large enough effect; inconclusive means small, poorly fitted or top-dose-only effect; inactive means no such curve, though single readings can be large or run the other way.
// allowed return values: active, inactive

Query: Please indicate how the test categorized CNC[C@H](O)[C@@H](O)[C@H](O)[C@H](O)CO .
Result: inactive

Query: Please indicate how the test categorized CCOC(=O)c1ncn2c1CN(C)C(=O)c1cc(F)ccc1-2 .
Result: inactive

Query: Please indicate how the test categorized O=C(Nc1ccc(Oc2ccnc3[nH]ccc23)c(F)c1)c1cccn(-c2ccc(F)cc2)c1=O .
Result: active

Query: Please indicate how the test categorized COc1cc2c(cc1OC)CC(=O)N(CCCN(C)C[C@H]1Cc3cc(OC)c(OC)cc31)CC2 .
Result: inactive

Query: Please indicate how the test categorized O=c1oc2c(O)c(O)cc3c(=O)oc4c(O)c(O)cc1c4c23 .
Result: inactive

Query: Please indicate how the test categorized Cc1cc(O)c(-c2ccc([C@@H](C)CN(C)C)cc2)c2c1[nH]c(=O)c1sccc12 .
Result: active

Query: Please indicate how the test categorized Nc1ncnc2c1ncn2[C@@H]1O[C@H](CO)C[C@H]1O .
Result: inactive

Query: Please indicate how the test categorized Clc1ccc(C2(c3ccc(-c4cn[nH]c4)cc3)CCNCC2)cc1 .
Result: active

Query: Please indicate how the test categorized NCCc1cnc[nH]1 .
Result: inactive

Query: Please indicate how the test categorized CCC(C)N(C)C(=O)c1cc2ccccc2c(-c2ccccc2Cl)n1 (configuration not stated) .
Result: inactive

Query: Please indicate how the test categorized CC(C(=O)O)c1cccc(C(=O)c2ccccc2)c1 (configuration not stated) .
Result: inactive

Query: Please indicate how the test categorized OC[C@H]1OC(O)C[C@@H](O)[C@H]1O (some centres not stated) .
Result: inactive

Query: Please indicate how the test categorized Cc1nc(N)ncc1-c1nc(N2CCOCC2)c2sc(C(C)(C)O)cc2n1 .
Result: active

Query: Please indicate how the test categorized CN(C)CC/C=C1/c2ccccc2COc2ccc(CC(=O)O)cc21 .
Result: inactive

Query: Please indicate how the test categorized O=C1CCCC(=O)C1C(=O)c1ccc(C(F)(F)F)cc1[N+](=O)[O-] .
Result: inactive

Query: Please indicate how the test categorized COc1cccc(-c2cc(=O)c3ccccc3o2)c1N .
Result: active

Query: Please indicate how the test categorized O=C(/C=C/c1cccc(S(=O)(=O)Nc2ccccc2)c1)NO .
Result: active

Query: Please indicate how the test categorized CN(C)S(=O)(=O)c1ccc2c(c1)C(=Cc1cc3c([nH]1)CCCC3)C(=O)N2 .
Result: active

Query: Please indicate how the test categorized CC(NCCc1ccc(O)cc1)C(O)c1ccc(O)cc1 (configuration not stated) .
Result: inactive

Query: Please indicate how the test categorized NC1=N[C@H]2[C@H](CS[C@H]2CCCCC(=O)O)N1 .
Result: inactive

Query: Please indicate how the test categorized Cc1cn(CCN2CCN(c3ccccc3-c3cc(C#N)cc(C(=O)NCCCN4CCCC4)c3)CC2)c2ccccc12 .
Result: active

Query: Please indicate how the test categorized COc1cc2c(Nc3ccc(NC(=O)c4ccccc4)cc3)ncnc2cc1OCCCN1CCOCC1 .
Result: active
